testTarget: T1, human IFNAR-1 protein (form not stated) (human, UniProt P17181 28-436, limits assumed)
T1 construct: bispecific ELISA
T1 sequence (looked up): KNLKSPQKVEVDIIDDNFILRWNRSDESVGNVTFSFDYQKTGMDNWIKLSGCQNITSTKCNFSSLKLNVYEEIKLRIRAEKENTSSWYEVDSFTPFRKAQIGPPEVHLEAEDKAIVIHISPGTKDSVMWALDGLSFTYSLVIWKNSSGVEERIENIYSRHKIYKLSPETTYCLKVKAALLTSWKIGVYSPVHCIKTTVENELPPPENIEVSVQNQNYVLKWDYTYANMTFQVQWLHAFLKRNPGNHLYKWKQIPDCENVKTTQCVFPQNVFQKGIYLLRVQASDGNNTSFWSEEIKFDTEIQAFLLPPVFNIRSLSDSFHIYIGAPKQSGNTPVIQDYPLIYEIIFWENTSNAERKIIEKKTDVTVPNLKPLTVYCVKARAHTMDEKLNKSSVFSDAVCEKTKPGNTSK
procedureDetails: affinity ranking of expressed humanized 485G10 IgGs (method not named)
pKd: −log10 of the molar value.
observable: pKd

binder="485G10 humanized VH0 + VL4 (antibody, V domains shown, Humanized IgG expressed in HEK293; also called VH0 + VL4 (485G10)) VH: QVQLVQSGAEVKKPGASVKVSCKASGFNIKDYYIHWVRQAPGQGLEWMGRIDPEDAETKYAPKFQGRVTMTRDTSISTAYMELSRLRSDDTVVYYCARYHGYWALDYWGQGTLVTVSS VL: DIQMTQSPSSLSTSVGDRVTVTCKTSQNVGTNVAWYQQKPGKAPKPLIYSTSYRYSGVPSRFSGSGSGTDFTLTISSVQPEDFATYYCHQYFSYPYTFGPGTKLDIK" observable=pKd reading=8.90
binder="485G10-H1L4 (antibody, V domains shown, Humanized IgG expressed in HEK293; also called VH1 + VL4 (485G10)) VH: QVQLVQSGAEVKKPGASVKVSCKASGFNIKDYYIHWVRQAPGQGLEWMGRIDPEDAETKYAPKFQGRVTMTADTSISTAYMELSRLRSDDTVVYYCARYHGYWALDYWGQGTLVTVSS VL: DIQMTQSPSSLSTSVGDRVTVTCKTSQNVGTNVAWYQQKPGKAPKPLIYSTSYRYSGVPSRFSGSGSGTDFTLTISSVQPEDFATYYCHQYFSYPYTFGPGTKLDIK" observable=pKd reading=9.18
binder="485G10 humanized VH3 + VL4 (antibody, V domains shown, Humanized IgG expressed in HEK293; also called VH3 + VL4 (485G10)) VH: QVQLVQSGAEVKKPGASVKLSCKGSGFNIKDYYIHWVKQAPGQGLEWIGRIDPEDAETKYAPKFQGRATITADTSISTAYLELSRLRSDDTVVYYCGRYHGYWALDYWGQGTLVTVSS VL: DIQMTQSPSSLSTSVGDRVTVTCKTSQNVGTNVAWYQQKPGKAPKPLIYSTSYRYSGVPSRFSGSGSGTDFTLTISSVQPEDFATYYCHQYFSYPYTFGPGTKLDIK" observable=pKd reading=9.12
binder="485G10 humanized VH3 + VL2 (antibody, V domains shown, Humanized IgG expressed in HEK293; also called VH3 + VL2 (485G10)) VH: QVQLVQSGAEVKKPGASVKLSCKGSGFNIKDYYIHWVKQAPGQGLEWIGRIDPEDAETKYAPKFQGRATITADTSISTAYLELSRLRSDDTVVYYCGRYHGYWALDYWGQGTLVTVSS VL: DIQMTQSPSSLSTSVGDRVTITCKTSQNVGTNVAWYQQKPGKAPKPLIYSTSYRYSGVPSRFSGSGSGTDFTLTISSLQPEDFATYYCHQYFSYPYTFGPGTKVDIK" observable=pKd reading=9.06
binder="485G10-H2L3 (antibody, V domains shown, Humanized IgG expressed in HEK293; also called VH2 + VL3 (485G10)) VH: QVQLVQSGAEVKKPGASVKLSCKASGFNIKDYYIHWVKQAPGQGLEWIGRIDPEDAETKYAPKFQGRVTMTADTSISTAYMELSRLRSDDTVVYYCGRYHGYWALDYWGQGTLVTVSS VL: DIQMTQSPSSLSTSVGDRVTITCKTSQNVGTNVAWYQQKPGKAPKPLIYSTSYRYSGVPSRFSGSGSGTDFTLTISSVQPEDFATYYCHQYFSYPYTFGPGTKLDIK" observable=pKd reading=9.07
binder="485G10 humanized VH2 + VL4 (antibody, V domains shown, Humanized IgG expressed in HEK293; also called VH2 + VL4 (485G10)) VH: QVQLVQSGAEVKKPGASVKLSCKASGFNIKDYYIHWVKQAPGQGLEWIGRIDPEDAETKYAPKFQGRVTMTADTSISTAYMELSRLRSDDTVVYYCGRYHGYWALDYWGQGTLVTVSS VL: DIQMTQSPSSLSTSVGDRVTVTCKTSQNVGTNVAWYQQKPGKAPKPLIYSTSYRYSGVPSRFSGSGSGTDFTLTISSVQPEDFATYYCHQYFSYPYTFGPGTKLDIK" observable=pKd reading=9.00
binder="485G10 humanized VH3 + VL3 (antibody, V domains shown, Humanized IgG expressed in HEK293; also called VH3 + VL3 (485G10)) VH: QVQLVQSGAEVKKPGASVKLSCKGSGFNIKDYYIHWVKQAPGQGLEWIGRIDPEDAETKYAPKFQGRATITADTSISTAYLELSRLRSDDTVVYYCGRYHGYWALDYWGQGTLVTVSS VL: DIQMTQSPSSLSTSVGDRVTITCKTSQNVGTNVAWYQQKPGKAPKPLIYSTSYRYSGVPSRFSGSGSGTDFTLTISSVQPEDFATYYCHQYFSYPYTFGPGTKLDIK" observable=pKd reading=9.08
